subject_of_test: T1, hPRLR.mmh (soluble monomeric human PRLR) (human)
T1 construct: called soluble monomeric PRLR protein
T1 chain: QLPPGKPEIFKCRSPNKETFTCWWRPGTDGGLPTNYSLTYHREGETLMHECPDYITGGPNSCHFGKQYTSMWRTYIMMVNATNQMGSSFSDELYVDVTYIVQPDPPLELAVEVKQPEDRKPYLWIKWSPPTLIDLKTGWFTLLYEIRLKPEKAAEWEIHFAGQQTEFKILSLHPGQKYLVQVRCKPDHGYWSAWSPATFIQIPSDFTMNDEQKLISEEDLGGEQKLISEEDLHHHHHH
measurement_protocol: SPR Biacore, 25 C, mAb capture
assay_readout: kon (M⁻¹ s⁻¹)
Numbers only; they are read as M⁻¹ s⁻¹.

Some solved cases for reference:
H1H6966N (antibody, human IgG1, V domains shown, Tested with human IgG1 Fc (H1H); also called H2M6966N) VH: QVQLVQSGAEVQKPGASVKVSCKVSGYTLTALSIHWVRQAPGKGLEWMGNFDPGDGETIHAQKFQGRVTMTGDTSTDTAYMELSSLRSEDTAVYYCVGVTFDYWGQGTLVTVSS VL: EIVMTQSPATLSVSPGERATLSCRASQSVASNLAWYQQKPGQAPRLLLYGASTRATGIPARFSGSGSGTEFTLTISSLQSEDFALYYCQHYNNWPLTFGGGTKVEIK | 852000
H1H6800P (antibody, human IgG1, V domains shown, Human IgG1 Fc (H1H)) VH: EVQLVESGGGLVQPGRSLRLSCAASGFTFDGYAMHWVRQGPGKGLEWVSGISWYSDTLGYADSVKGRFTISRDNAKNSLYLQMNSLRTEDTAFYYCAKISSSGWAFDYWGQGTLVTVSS VL: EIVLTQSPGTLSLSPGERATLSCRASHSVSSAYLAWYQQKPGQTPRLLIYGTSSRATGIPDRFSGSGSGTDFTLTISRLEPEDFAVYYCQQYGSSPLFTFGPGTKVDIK | 421000

Here is the next item to consider.
Record H1H6762P (antibody, human IgG1, V domains shown, Human IgG1 Fc (H1H)) VH: QVQLVESGGGVVQPGRSLRLSCAASGFTFSHYGMVWVRQPPGKGLEWVALISFDGTTKYYADSVKGRFTISRDNSKNTLYLQMNSLRAEDTAVYFCVGAIAAAAFDLWGRGTLVTVSS VL: EIVMTQSPATLSVSPGERATLSCRASQSVSSDLAWYQQKPGQAPRLLIYSASARATGIPARFTGSGSGTDFTLTISSLQSEDFAVYYCQQYNNWPMYTFGQGTKLEIK . Reported kon: 692000
